B1: library; numbered along this chain (parent)
chain: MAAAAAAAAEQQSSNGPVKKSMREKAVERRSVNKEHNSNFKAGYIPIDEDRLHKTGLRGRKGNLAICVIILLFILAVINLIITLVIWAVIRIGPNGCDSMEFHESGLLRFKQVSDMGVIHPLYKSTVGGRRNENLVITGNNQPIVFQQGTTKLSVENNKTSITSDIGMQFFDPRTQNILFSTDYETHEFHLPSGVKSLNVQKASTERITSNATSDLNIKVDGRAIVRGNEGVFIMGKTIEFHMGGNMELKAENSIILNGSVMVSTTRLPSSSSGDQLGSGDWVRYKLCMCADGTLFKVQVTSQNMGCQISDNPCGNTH

# Variants of: B1
# ASSAY NOTES: SGCB cell-surface expression functional score (HA stain, bin4 vs bin1, normalised to synonymous) (log10 ratio); higher = more cell-surface SGCB (functional)
Use 0.01 as the dividing line for SGCB cell-surface expression functional score (log10), with the line itself on the Yes side and lower values as No.

- VARIANT IDENTIFIER: "S273V"
  CAT: "No"
- VARIANT IDENTIFIER: "T182G"
  CAT: "No"
- VARIANT IDENTIFIER: "L75H"
  CAT: "Yes"
- VARIANT IDENTIFIER: "T126C"
  CAT: "Yes"
